Test details: chemical genetic growth profiling, strain panel (AID 1159580);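 also: tested at 20 µM; growth read once vehicle control cultures reached saturation at 30 °C; 1 = growth at the plate median or of vehicle wells; lower values mean less growth of the strain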
Protocol conditions: S. cerevisiae deletion strains, growth OD, locus YBR021W, strain FUR4, active compounds read low
The whole screen tested about 5,500 compounds, of which about 2,000 (36%) were called active. Inconclusive results (about 18%) are left out. The list shows a part of the results.
Observed property: normalized growth

> print(dat)
                                   compound  recorded.measurement
1  C[C@]12C=CC(=O)C=C1CCC1C3C[C@@H](O)[C@](O)(C(=O)CO)[C@@]3(C)C[C@H](O)[C@@]12F (stereo partly drawn)       1.02 (inactive)
2               N#C/C(=C\c1cccc(O)c1)C(=O)O       1.02 (inactive)

Consider the record given below.
Field request: normalized growth | item: Cc1cccc(Nc2ccncc2S(=O)(=O)NC(=O)NC(C)C)c1
1.02 (inactive)

====

Test details: chemical genetic growth profiling, strain panel (AID 1159580);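 also: tested at 20 µM; growth read once vehicle control cultures reached saturation at 30 °C; 1 = growth at the plate median or of vehicle wells; lower values mean less growth of the strain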
Protocol conditions: S. cerevisiae deletion strains, growth OD, locus YOR070C, strain gyp1, active compounds read low
About 2,000 (36%) of roughly 5,500 compounds were called active. About 18% were inconclusive and are not listed. The list shows a part of the results.
Observed property: normalized growth
Give bare numbers.

Below are worked cases with known answers.
Compound	normalized growth
NC(=O)c1ncn(C2O[C@H](CO)[C@@H](O)[C@H]2O)c1N (stereo not given in full)	1.03
Cc1cc(O)c(C=O)c2c1C(=O)Oc1c(COC(=O)/C=C/C(=O)O)c(O)c(C(=O)O)c(C)c1O2	0.988
CN1CCN(C2=Nc3ccccc3Oc3ccc(Cl)cc32)CC1	0.982

Look at each compound and report its normalized growth.
1. C[C@]12C=CC(=O)C=C1CCC1C3C[C@@H](O)[C@](O)(C(=O)CO)[C@@]3(C)C[C@H](O)[C@@]12F (stereo not given in full)
2. CC12CC3CC(C)(C1)CC(N)(C3)C2
3. NS(=O)(=O)c1cc2c(cc1Cl)NC(C1CC3C=CC1C3)NS2(=O)=O (stereo not given)
4. CO[C@]12C[C@@H](COC(=O)c3cncc(Br)c3)CN(C)[C@@H]1Cc1cn(C)c3cccc2c13
5. Nc1cc(-c2ccncc2)c[nH]c1=O

0.979
0.991
0.993
0.994
0.814

====

Test details: chemical genetic growth profiling, strain panel (AID 1159580);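 also: tested at 20 µM; growth read once vehicle control cultures reached saturation at 30 °C; 1 = growth at the plate median or of vehicle wells; lower values mean less growth of the strain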
Protocol conditions: S. cerevisiae deletion strains, growth OD, locus YAL013W, strain DEP1, active compounds read low
About 2,000 (36%) of roughly 5,500 compounds were called active. About 18% were inconclusive and are not listed. This is one part of the list.
Observed property: normalized growth
Answers are plain numbers.

Compound	normalized growth
N[C@@H](Cc1ccc(F)cc1)C(=O)O	1.01
O=C1NC(c2cccc([N+](=O)[O-])c2)=CCN1c1ccccc1O	0.998
CCC(=O)c1ccc2c(c1)N(CC(C)N(C)C)c1ccccc1S2 (configuration not stated)	0.983
COc1cc2c(cc1O)C(Cc1ccc(O)cc1)N(C)CC2 (configuration not stated)	1.01
CCCCS(=N)(=O)CCC(N)C(=O)O (configuration not stated)	0.993

Look at each compound and report its normalized growth.
1. CC(CCC(=O)O)[C@H]1CCC2C3CC[C@@H]4CCCC[C@]4(C)C3CC[C@@]21C (some centres not stated)
2. Cc1nc2n(c(=O)c1CCN1CCC(c3noc4cc(F)ccc34)CC1)CCCC2
3. NC(Cc1ccc(F)cc1)C(=O)O (configuration not stated)
4. O=c1cc(-c2cc(O)c(O)c(O)c2)oc2cc(O)cc(O)c12
5. COC(=O)CCC(C)C1CCC2C3CC[C@@H]4C[C@H](O)CC[C@]4(C)C3C[C@H](O)[C@]12C (some centres not stated)
6. N[C@H](Cc1cc(I)c(Oc2ccc(O)c(I)c2)c(I)c1)C(=O)O

0.995
0.998
1.01
0.997
0.983
1.01

Look at each compound and report its normalized growth.
1. CCn1cnc2c(Nc3cccc(Cl)c3)nc(N[C@@H]3CCCC[C@@H]3N)nc21
2. CC(CCC(=O)O)[C@H]1CCC2C3CC[C@@H]4C[C@H](O)CC[C@]4(C)C3C[C@H](O)[C@@]21C (some centres not stated)
3. CCCCCC1C(=O)CCC1CC(=O)O (configuration not stated)

1: 0.985; 2: 1.01; 3: 0.997

Each recorded value in this set is attributed to PubChem BioAssay AID1159580.
